biological target: Histone deacetylase 8 (Schistosoma mansoni) (UniProt A5H660); experiment: Inhibition of Schistosoma mansoni KDAC8 at 30 uM using (FAM)-labeled peptide as substrate after 60 mins by microfluidic assay
Sequence (A5H660 as listed by the source): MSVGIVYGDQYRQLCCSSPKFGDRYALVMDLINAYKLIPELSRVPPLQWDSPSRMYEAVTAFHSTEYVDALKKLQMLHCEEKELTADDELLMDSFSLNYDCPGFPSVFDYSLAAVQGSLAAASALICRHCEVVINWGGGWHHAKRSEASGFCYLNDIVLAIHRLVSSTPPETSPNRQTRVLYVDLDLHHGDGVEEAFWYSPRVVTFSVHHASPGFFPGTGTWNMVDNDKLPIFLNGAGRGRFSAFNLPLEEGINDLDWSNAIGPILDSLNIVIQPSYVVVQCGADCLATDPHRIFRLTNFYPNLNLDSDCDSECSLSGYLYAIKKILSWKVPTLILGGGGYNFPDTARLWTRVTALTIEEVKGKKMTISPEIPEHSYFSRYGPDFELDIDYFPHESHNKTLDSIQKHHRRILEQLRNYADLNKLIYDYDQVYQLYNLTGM
Activity calls are given as the source filed them. The rule behind the calls is not given here.

{"columns": ["Compound", "inhibition"],
 "data": [
  ["CC(C)[C@@H]1NC(=O)[C@@H]2CCCN2C(=O)[C@H]2CCCN2C(=O)C[C@H](C(=O)NCCCS)NC1=O", "14.6%"],
  ["O=C(C[C@@H]1N=C(c2ccccc2)c2ccccc2NC1=O)NC(c1ccccc1)(c1ccccc1)c1ccccc1", "0%"],
  ["CC(C)[C@@H]1NC(=O)[C@@H]2CCCN2C(=O)[C@H]2CCCN2C(=O)C[C@H](C(=O)NCCC[S+](C)[O-])NC1=O (some centres undefined)", "0%"],
  ["CC(C)(C)OC(=O)NCCCC[C@@H]1N=C(c2ccccc2)c2ccccc2NC1=O", "0%"],
  ["CC(C)(C)OC(=O)CC[C@@H]1N=C(c2ccccc2)c2ccccc2N(CCCCC(=O)NO)C1=O", "24.9%"],
  ["CC[C@H](C)[C@@H]1N=C(c2ccccc2)c2ccccc2NC1=O", "0%"],
  ["NS(=O)(=O)c1ccc(Nc2ccccc2)c([N+](=O)[O-])c1", "12%"],
  ["COC(=O)CCCCN1C(=O)[C@H](C(C)C)N=C(c2ccccc2)c2ccccc21", "0%"],
  ["CC(C)[C@@H]1NC(=O)[C@@H]2CCCN2C(=O)[C@H]2CCCN2C(=O)C[C@@H](C(=O)NCCS)NC1=O", "0%"],
  ["O=C(CC[C@@H]1N=C(c2ccccc2)c2ccccc2NC1=O)NC(c1ccccc1)(c1ccccc1)c1ccccc1", "10.4%"],
  ["CSCCCNC(=O)[C@H]1CC(=O)N2CCC[C@H]2C(=O)N2CCC[C@@H]2C(=O)N[C@@H](C(C)C)C(=O)N1", "0%"],
  ["NCCCC[C@@H]1N=C(c2ccccc2)c2ccccc2N(CCCCC(=O)NO)C1=O", "4.32%"],
  ["O=C(CCCNC(=O)CC[C@@H]1N=C(c2ccccc2)c2ccccc2NC1=O)NO", "81.7%"],
  ["CSCC[C@@H]1N=C(c2ccccc2)c2ccccc2NC1=O", "0%"],
  ["COC(=O)CCCCN1C(=O)[C@H](C)N=C(c2ccccc2)c2ccccc21", "0%"],
  ["O=C(CCCCN1C(=O)[C@H](Cc2cncn2C(c2ccccc2)(c2ccccc2)c2ccccc2)N=C(c2ccccc2)c2ccccc21)NO", "3.81%"],
  ["CC(C)[C@@H]1NC(=O)[C@H]2CCCN2C(=O)[C@@H]2CCCN2C(=O)C[C@H](C(=O)NCCCC(=O)NO)NC1=O", "< 26%"],
  ["COC(=O)CCCCN1C(=O)[C@H](COC(C)(C)C)N=C(c2ccccc2)c2ccccc21", "0%"],
  ["O=C(O)CCCCN1C(=O)[C@H](CCC(=O)O)N=C(c2ccccc2)c2ccccc21", "0%"],
  ["O=C(O)CCCCN1C(=O)[C@H](CC(=O)O)N=C(c2ccccc2)c2ccccc21", "0%"],
  ["Clc1ccc(Nc2nnc(-c3ccc4c(c3)OCO4)o2)cc1", "10%"],
  ["NC(=O)CC[C@@H]1N=C(c2ccccc2)c2ccccc2N(CCCCC(=O)NO)C1=O", "11.6%"],
  ["CC(C)[C@@H]1NC(=O)[C@H]2CCCN2C(=O)[C@@H]2CCCN2C(=O)C[C@H](C(=O)NCCCSCCN)NC1=O", "0%"],
  ["CSCCCNC(=O)[C@@H]1CC(=O)N2CCC[C@@H]2C(=O)N2CCC[C@H]2C(=O)N[C@@H](C(C)C)C(=O)N1", "0%"],
  ["CC(C)[C@@H]1NC(=O)[C@H]2CCCN2C(=O)[C@@H]2CCCN2C(=O)C[C@H](C(=O)Cc2ccccc2)NC1=O", "0%"],
  ["O=C(O)Cc1ccc(/N=N/c2c(O)c(C(=O)O)cc3ccccc23)cc1", "inactive"],
  ["CC(C)[C@@H]1NC(=O)[C@@H]2CCCN2C(=O)[C@H]2CCCN2C(=O)C[C@@H](C(=O)NCCSSCCNC(=O)[C@@H]2CC(=O)N3CCC[C@@H]3C(=O)N3CCC[C@H]3C(=O)N[C@@H](C(C)C)C(=O)N2)NC1=O", "0%"],
  ["CC(C)[C@@H]1NC(=O)[C@H]2CCCN2C(=O)[C@@H]2CCCN2C(=O)C[C@@H](C(=O)NCCS)NC1=O", "0%"],
  ["O=C(O)CCCCN1C(=O)[C@H](CCC(=O)NC(c2ccccc2)(c2ccccc2)c2ccccc2)N=C(c2ccccc2)c2ccccc21", "0%"],
  ["CC(C)(C)Oc1ccc(C[C@@H]2N=C(c3ccccc3)c3ccccc3N(CCCCC(=O)O)C2=O)cc1", "0%"],
  ["COC(=O)CCCCN1C(=O)[C@H](Cc2cncn2C(c2ccccc2)(c2ccccc2)c2ccccc2)N=C(c2ccccc2)c2ccccc21", "2.5%"],
  ["CC(C)(C)Oc1ccc(C[C@@H]2N=C(c3ccccc3)c3ccccc3N(CCCCC(=O)NO)C2=O)cc1", "74%"],
  ["O=C1c2ccccc2C2=C3C(O)=NN=C3CCN12", "inactive"],
  ["CC(C)[C@@H]1NC(=O)[C@@H]2CCCN2C(=O)[C@H]2CCCN2C(=O)C[C@H](C(=O)NCCS)NC1=O", "8.3%"]
]}
